tested on: human CCR8 (human, UniProt P51685 1-355)
procedure text: cell-based or functional assay
Reported extrapolated top plateau of hCCL1 curve with 5 µg/mL mAb, protocol #3 values for a set of binders

These solved cases illustrate the format of a correct answer.
anti-CCR8 mAb 1-7 (antibody, V domains shown, Murine hybridoma mAb) VH: QVHLVETGGGLVRPGNSLKLSCVTSGFTLSNYRMHWLRQPPGKRLEWIAVIKVKSDNYGANYAESVKGRFTISRDDAKSSVYLQMNRLREEDTATYYCSRPDGFSPFVYWGQGTLVTVSA VL: DIKMTQSPSSMYASLGERVTITCKASQDINSYLSWFQQKPGKSPKTLIYRANRLVDGVPSRFSGSGSGQDYFLTISSLEYEDMGIYYCLQYGEFPPTFGAGTKLELK : 526000 % of hCCL1 (100 nM)
anti-CCR8 mAb 1-14 (antibody, V domains shown, Murine hybridoma mAb) VH: QVQLVETGGGLVRPGNSLKLSCVTSGFTFSNYRMHWLRQPPGKRLEWIAVIKVKSDNYGANYAESVKGRFTISRDDSKSSVYLQVNRLREEDTATYYCSSPTYPGSSGFAYWGQGTLVTVSA VL: DIQMTQTTSSLSASLGDRVTISCRASQDISNYLNWYQQKPDGTVKLLIYYTSRLHSGVPSRFSGSGSGTDYSLTISNLEQEDIATYFCQQGNKFPPTFGGGTKLEIN : 305000 % of hCCL1 (100 nM)
anti-CCR8 mAb 1-3 (antibody, V domains shown, Murine hybridoma mAb) VH: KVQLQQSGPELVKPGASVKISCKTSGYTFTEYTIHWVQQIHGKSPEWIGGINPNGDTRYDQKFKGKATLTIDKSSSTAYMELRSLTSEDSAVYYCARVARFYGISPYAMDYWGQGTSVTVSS VL: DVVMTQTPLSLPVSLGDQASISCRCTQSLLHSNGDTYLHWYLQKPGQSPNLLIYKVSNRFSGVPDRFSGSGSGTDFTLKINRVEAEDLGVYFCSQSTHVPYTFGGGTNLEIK : 663 % of hCCL1 (100 nM)
anti-CCR8 mAb 1-10 (antibody, V domains shown, Murine hybridoma mAb) VH: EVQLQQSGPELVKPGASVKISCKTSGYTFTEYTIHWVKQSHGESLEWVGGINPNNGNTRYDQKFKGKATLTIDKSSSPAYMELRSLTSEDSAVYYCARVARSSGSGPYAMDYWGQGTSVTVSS VL: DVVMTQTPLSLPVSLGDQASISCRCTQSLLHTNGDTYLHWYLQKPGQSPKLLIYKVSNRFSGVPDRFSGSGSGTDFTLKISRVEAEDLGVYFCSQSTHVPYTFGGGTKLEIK : 855 % of hCCL1 (100 nM)

# binder anti-CCR8 mAb 1-2 (antibody, V domains shown, Murine hybridoma mAb) VH: EVQLVESGGGLVQPKGSLKLSCAASGFTFNTYAMNWVRQAPGKGLEWVARIRSKSNNYATYYADSVKDRFTISRDDSQSMLYLQMNNLKTEDTAMYYCVRGREAYYRYDGGYYAMDYWGQGTSVTVSS VL: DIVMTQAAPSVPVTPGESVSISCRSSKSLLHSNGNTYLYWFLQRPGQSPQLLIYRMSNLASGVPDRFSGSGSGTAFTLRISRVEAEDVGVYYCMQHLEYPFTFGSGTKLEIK ; its extrapolated top plateau of hCCL1 curve with 5 µg/mL mAb, protocol #3 = 640000 % of hCCL1 (100 nM)
